Reported PBM binding z-score by item:
# System: FXR:RXRa (NR concentration 270 nM, RXRa partner concentration 90 nM)
# Assay method text: PBM binding z-score (relative to random genomic background probes); higher = stronger binding; sequences stand for … in GC…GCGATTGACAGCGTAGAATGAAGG

Answered cases to consult:
- Residue string: "TCGAGTAGGTTAGGGGCAGTCAGAATGGCGTCGA"
  Measured target: "FXR:RXRa (NR concentration 270 nM, RXRa partner concentration 90 nM)"
  PBM binding z-score: 0.232
- Residue string: "CCTTACGGGTCCAGGTTATAGCACGGGTGGTACG"
  Measured target: "FXR:RXRa (NR concentration 270 nM, RXRa partner concentration 90 nM)"
  PBM binding z-score: -0.118
- Residue string: "ATCCAAAGGTCGAAGGTGAGTATACCCACCCGAA"
  Measured target: "FXR:RXRa (NR concentration 270 nM, RXRa partner concentration 90 nM)"
  PBM binding z-score: 5.05
- Residue string: "TCTAGTAGGTTACCAATGGGGCATTCAGCTTTCT"
  Measured target: "FXR:RXRa (NR concentration 270 nM, RXRa partner concentration 90 nM)"
  PBM binding z-score: 0.412
- Residue string: "TGTCAAAGTTCATAGGTAACGTAAGTATCCACAC"
  Measured target: "FXR:RXRa (NR concentration 270 nM, RXRa partner concentration 90 nM)"
  PBM binding z-score: 6.65
- Residue string: "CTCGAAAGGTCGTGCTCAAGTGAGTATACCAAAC"
  Measured target: "FXR:RXRa (NR concentration 270 nM, RXRa partner concentration 90 nM)"
  PBM binding z-score: 5.4

Answer with the recorded PBM binding z-score of CCTACAGGGTCAGCTAGGCCAGAGTAGGGACGGC only.
4.39

Give the reported PBM binding z-score for this sequence. ATCTCTAGGTAAGACCCAGTTCAGTGAAGAACGC
0.43

For the sequence ACAGACAGGTGAGTTAAGGTAACTCAGCTGGACG , report PBM binding z-score.
0.488

Identify measured PBM binding z-score corresponding to ACTATTAGGTGACTTAGGGCAACCGATACGACGC
0.616

Tell me PBM binding z-score reported for ACTAGTAGTTGACTTAGGGCAACCGATACGACGC
-0.211

###

# Tested on: PPARg DBDmut IVT, anti-PPARg (DBD mutation: PPARg1 K132A/R137A, NR concentration 270 nM)
# Assay method text: PBM binding z-score (relative to random genomic background probes); higher = stronger binding; sequences stand for … in GC…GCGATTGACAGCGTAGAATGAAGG
We use 0.4 as the dividing line for PBM binding z-score: on or above the line is YES, below is NO.

The examples below pair each entry with its known result.
- Residue string: "TAGCCTAGGTCATGCGAGCCAGTATAGTGTCGGC"
  Assigned category: "NO"
- Residue string: "TCTAGTTGGTCAGAGGTCACACACTCGAAATGCG"
  Assigned category: "YES"
- Residue string: "ATCTCTAGGTAAGACTCAGTTCAGTGTAGAACGC"
  Assigned category: "YES"
- Residue string: "AGAATGAGGTTATTAAAATCAGGGAATTGCGGTC"
  Assigned category: "YES"
- Residue string: "CCTTACGAGTCACTGACAGGTTATAGCATTTGGA"
  Assigned category: "YES"
- Residue string: "CCTAGTTGGTCAGGAGGTCAGACACCGGATATGA"
  Assigned category: "NO"
- Residue string: "CGTCCAAGGTCAAGGCCAGTGAAAGAGACTCGAA"
  Assigned category: "NO"
- Residue string: "CGTCCAAGGTCAATGCTAGGTCAGTGAAAGCATT"
  Assigned category: "YES"

State whether the measured PBM binding z-score reaches 0.4, counting equality as reaching it, for ATCGAAAGGTCGAGCTGAGTATAGAGAAAGGGAA
NO

Exam item: decide whether the reported PBM binding z-score for CAAACTAGGTCAAGGTCAAAGACGGTTTGTGCCA is at least 0.4.
YES

Textbook exercise: given the entry GCTAGCAGACCATTTGGGTCACTCAATGACGGGC , state whether its PBM binding z-score is greater than or equal to 0.4.
NO

Textbook exercise: given the entry TCATATTGGTAAAGGTGAAAGTCGAACGATATGA , state whether its PBM binding z-score is greater than or equal to 0.4.
YES

State whether the measured PBM binding z-score reaches 0.4, counting equality as reaching it, for TCAGACAGGTGAAGGTAACTCATGTACGCAGTCG
NO

Textbook exercise: given the entry AGAACGAGGGCTATGAGTTGATAGCACGGGTGGC , state whether its PBM binding z-score is greater than or equal to 0.4.
NO

Assess whether reported PBM binding z-score for TCTCTGAGGACACGAAAGGTCAGAGCTCGACATC sits at 0.4 or higher.
YES

Tell me whether PBM binding z-score is at least 0.4 here: ACAGACAGGTGAGTGAAGGTGACTCAGCTGGACG
NO

Tell me whether PBM binding z-score is at least 0.4 here: TCGAATAGGTTAGTCGGGGCATTCAGCCAACATA
NO

Reported PBM binding z-score reaches at least 0.4 for CCTTACGGGTCGCTCCAGGTTATAGCATCGGAGT ?
NO

Could you verify whether the entry TGAATGAGGTTCAAGATCAGGGAACGTGGCGTCG shows PBM binding z-score of no less than 0.4?
NO

Determine whether measured PBM binding z-score meets or exceeds 0.4 for ACTAGCAGGCGAAGGGTCACTCAAGATTAGTCCG
NO

Item ATCTCTAGGTAAGACTCAATTCAGTGAAGAACGC with PBM binding z-score of 0.4 or above?
YES

Is reported PBM binding z-score greater than or equal to 0.4 here: ACTATTAGTTGAGACGAGGGCGACCGATAGGTTG
YES

Please check the record CAGCCTAGGTCAGGGCCCGTATAGGAGGAACGTT and state if its PBM binding z-score is at or above 0.4.
NO

Is the recorded value of PBM binding z-score equal to or greater than 0.4 for this sequence? CAAACTAGGTCAGGGTCAAAGTCGGTTTGTGCCA
YES

I'd appreciate it if you could say whether TCATTTAGGTAATACAGGTGAAAGTCGGCATCTA has PBM binding z-score at least equal to 0.4.
YES
